Data provenance is PubChem BioAssay (NCI).

- System: A549 NSCLC
- Protocol Description: NCI tumour cell line growth inhibition, 48 h
Measurement Label: TGI

State its TGI on A549 NSCLC: CN1CCN=C1c1nnn(-c2ccc([N+](=O)[O-])cc2)c1-c1ccccc1
> 100 µM

State its TGI on A549 NSCLC: CCOC(=O)[C@@]12C(C)=CC(=O)O[C@]1(C)C1C(=O)NC(=O)C12 (some centres not stated)
> 100 µM

State its TGI on A549 NSCLC: COC(=O)CCC(=O)NC1=C(Nc2ccccc2)C(=O)c2ccccc2C1=O
37 µM

###

# key: entry, value: TGI
- System: CAKI-1 renal
- Protocol Description: NCI tumour cell line growth inhibition, 48 h

Field: example entries. Status: answers known.
O=C1CC(c2ccsc2)n2cccc21 (stereo unspecified)
> 100 µM
N/N=C(/N)SCCCCCCCCCCS/C(N)=N/N
> 100 µM

Which TGI reading was recorded for the compound C=C(Br)C[N+]12CN3CN(CN(C3)C1)C2 ?
> 100 µM

Which TGI reading was recorded for the compound Cc1ccc(N2C(=O)C3CSCN3C2=O)cc1 (stereo unspecified) ?
> 100 µM

Which TGI reading was recorded for the compound CCOC(=O)c1c(N2CCCC2)[nH]c(=O)c(C(c2ccc(N(C)C)cc2)c2c(O)c(C(=O)OCC)c(N3CCCC3)[nH]c2=O)c1O ?
> 100 µM

Which TGI reading was recorded for the compound COc1cc(F)c(F)cc1C(=O)c1cnc(NC2CCN(S(C)(=O)=O)CC2)nc1N ?
> 25 µM

Which TGI reading was recorded for the compound Cc1ccc(S(=O)(=O)n2cc([C@@]3(O)C[C@H](CSC#N)OC3=O)c3ccccc32)cc1 ?
25.8 µM

Which TGI reading was recorded for the compound COc1ccc(-n2c(N)c(C#N)c(C#N)c2-c2ccco2)cc1 ?
> 100 µM

###

- Test system: RPMI-8226 leukemia
- Protocol Description: NCI tumour cell line growth inhibition, 48 h
# key: entry, value: GI50

FC(F)c1ncc(-c2ccc(C(F)(F)F)cc2)c(NC2CCCCCC2)n1
> 10000 nM
CC(C)[P+](c1ccccc1)(c1ccccc1)c1ccccc1
1720 nM
CC(C)C[C@H](NC(=O)Cn1cccc(CNC(=O)c2ccccc2)c1=O)B(O)O
352 nM

Which GI50 reading was recorded for the compound COc1cc2nc(N3CCC[C@H](NC4=CC(=O)c5ccccc5C4=O)C3)nc(N)c2cc1OC ?
1980 nM

Which GI50 reading was recorded for the compound N#CC1=C(N)NC(N2CCOCC2)=NC12Nc1ccccc1O2 (centres undefined) ?
15400 nM

Which GI50 reading was recorded for the compound CCN(CC)CCCNCc1cc(-c2ccccc2)nc2cc(Cl)ccc12 ?
2460 nM

Which GI50 reading was recorded for the compound OCCCCC#Cc1ccccc1C#Cc1cccnc1 ?
35500 nM

Which GI50 reading was recorded for the compound CC(=O)c1c[nH]c2ccc(-c3ccnc(Nc4ccc(NC(=O)C5CCCC5)c(CN5CCOCC5)c4)n3)cc12 ?
45 nM

Which GI50 reading was recorded for the compound CCOC(=O)c1c(-c2ccccc2)[n+](=O)c2cc(F)c(F)cc2n1[O-] ?
1020 nM

###

- Tested on: SF-295 CNS
- Protocol Description: NCI tumour cell line growth inhibition, 48 h
# key: entry, value: TGI
Respond with the bare value in µM.

COC(=O)CCC(=O)NC1=C(Nc2ccccc2)C(=O)c2ccccc2C1=O
29.9

Moving on to another molecule below.
Which TGI reading was recorded for the molecule Cc1nn(C)c2ncnc(N/N=C/c3cccc(O)c3O)c12 ?
49.9
